- Tested on: CAMK2G;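 also: KINOMEscan kinase panel screen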
- Cond: concentration: 1 μM,replicates: in singlicate; n = 1
One threshold, 1%, splits the recorded %Inh values: lower ones are criterion met, equal or higher ones are criterion not met.

As a guide, the following entries are already answered.
[
  {
    "Compound": "CS(=O)c1ccc(-c2coc3ccc(-c4n[nH]c(=O)o4)cc23)cc1 (stereo not drawn)",
    "Assigned Category": "criterion not met"
  },
  {
    "Compound": "CC(=O)Nc1ccc(-c2cc3ncnc(SCC(=O)O)c3s2)cc1",
    "Assigned Category": "criterion not met"
  },
  {
    "Compound": "COc1cccc(C2=C(Nc3cccc(Cl)c3)C(=O)NC2=O)c1",
    "Assigned Category": "criterion not met"
  },
  {
    "Compound": "O=C(Nc1ccccc1)c1cccc(Oc2ccc3nccn3n2)c1",
    "Assigned Category": "criterion met"
  },
  {
    "Compound": "CNC(=O)c1ccccc1Nc1nc(Nc2cccc(CS(C)(=O)=O)c2)ncc1C.O=CO",
    "Assigned Category": "criterion not met"
  },
  {
    "Compound": "Cc1ccc(Nc2ccnc(Nc3ccc4c(c3)CS(=O)(=O)C4)n2)cc1O.Cl",
    "Assigned Category": "criterion not met"
  },
  {
    "Compound": "CN1CCN(CCNc2nc3cc(Oc4ccc(NC(=O)Nc5cc(C(F)(F)F)ccc5F)cc4)ccc3[nH]2)CC1.Cl.Cl",
    "Assigned Category": "criterion met"
  },
  {
    "Compound": "COc1cc2nccc(Nc3ccc(Oc4ccccc4)cc3)c2cc1OC.Cl",
    "Assigned Category": "criterion not met"
  }
]

Exercise: Would you kindly verify if %Inh of Cc1n[nH]c2cc(Nc3ccnc(Nc4cccc(CN5CCOCC5)c4)n3)ccc12 is strictly less than 1%?
Solution: criterion met

Exercise: Quick one: CSc1nccc(-c2c(-c3ccc(F)cc3)ncn2CCCN2CCOCC2)n1.Cl
Solution: criterion met

Exercise: Quick one: CCCC(=O)Nc1n[nH]c2ncccc12
Solution: criterion met

Exercise: Quick one: N#Cc1cccc(C(=O)NC2CCN(c3ccnc(Nc4ccc(F)cc4)n3)C2)c1 (stereo not drawn)
Solution: criterion met

Exercise: Quick one: COc1cccc(OC)c1C(=O)Nc1cccc(-c2nn3ccccc3c2-c2ccnc(Nc3cccc(F)c3)n2)c1
Solution: criterion met

Exercise: Quick one: Cl.Cl.NC[C@H](CC1CCCCC1)NC(=O)c1ccc(-c2ccnc3[nH]ccc23)s1
Solution: criterion not met

Exercise: Quick one: Nc1nccc(-c2ccc3c(N)n[nH]c3c2)n1
Solution: criterion met

Exercise: Quick one: Cn1ccc2ncnc(Oc3ccc(NC(=O)Nc4ccnc(C(F)(F)F)c4)c(Cl)c3)c21
Solution: criterion not met

Exercise: Quick one: COc1cccc(CNC(=O)NC2CCN(c3ccnc(Nc4cc(OC)c(OC)c(OC)c4)n3)C2)c1 (stereo not drawn)
Solution: criterion not met

These entries and their values trace back to paper PMC5540273.
